Listing of pIC50 toward Glycogen synthase kinase-3 alpha (Homo sapiens, UniProt P49840), each taken from a published source.
pIC50: −log10 of the molar value.
measurement.name: pIC50

1. COc1c(CC(N)=O)cc(C(C)(C)C)cc1NC(=O)Nc1ccc(Oc2ccnc(Nc3ccccc3)c2)c(F)c1F	6.33
2. COCCOCCOC[C@@H](C)NC(=O)c1ccc(Nc2cc(Oc3ccc(NC(=O)Nc4cc(C(C)(C)C)cc(NS(C)(=O)=O)c4OC)c4ccccc34)ccn2)cc1OC	5.39
3. O=C(Nc1cnccc1N1CCOCC1)c1ccnn2c(NCC3CC3)cnc12	8.85
4. C#Cc1cc(Nc2nccc(Oc3ccc(NC(=O)Nc4cc(C(C)C)nn4C)c4ccccc34)n2)cc(C(=O)NCCOCCOCCOC)c1	5.02
5. COCCOCCOCCNC(=O)c1cc(Nc2cc(Oc3ccc(NC(=O)Nc4cc(C(C)(C)C)cc(CNC(C)=O)c4OC)c4ccccc34)ccn2)cc(OC)c1	6.06
6. CC(C)(C)c1cc(NC(=O)Nc2ccc(Oc3ccnc(Nc4ccc5c(c4)C(=O)NC5)n3)c3ccccc23)n(-c2ccc(OCCN3CCOCC3)cc2)n1	6.74

* * *

Listing of log10(IC50) toward Glycogen synthase kinase-3 alpha (Homo sapiens, UniProt P49840), each taken from a published source.
measurement.name: log10(IC50) (log10 of the value in µM)

1) C#Cc1cc(Nc2nccc(Oc3ccc(NC(=O)Nc4cc(C(C)C)nn4-c4cccc(CP(C)(C)=O)c4)c4ccccc34)n2)cc(C(=O)NCCN2CCOCC2)c1	-0.76
2) COc1cc(Nc2cc(Oc3ccc(NC(=O)Nc4cc(C(C)(C)C)cc(CC(N)=O)c4OC)c4ccccc34)ccn2)cc(S(=O)(=O)C2CC2)c1	1.04
3) COc1cccc(Nc2cc(Oc3ccc(NC(=O)Nc4cc(C(C)(C)C)cc(CC(N)=O)c4OC)c4ccccc34)ccn2)c1	1.02
4) COc1c(CP(C)(C)=O)cc(C(C)(C)C)cc1NC(=O)Nc1ccc(Oc2ccnc(Nc3ccccc3)c2)c2ccccc12	0.87
5) COc1cc(Nc2cc(Oc3ccc(NC(=O)Nc4cc(C(C)(C)C)cc(NS(C)(=O)=O)c4OC)c4ccccc34)ccn2)cc(C(=O)NCC(=O)N2CCOCC2)c1	0.83
6) COc1cc(Nc2cc(Oc3ccc(NC(=O)Nc4cc(C(C)(C)C)cc(P(C)(C)=O)c4OC)c4ccccc34)ccn2)cc(OC)c1	1.05

* * *

pIC50: −log10 of the molar value.
Listing of pIC50 toward Glycogen synthase kinase-3 alpha (Homo sapiens, UniProt P49840), each taken from a published source.
Classify as follows. Reported pIC50 greater than or equal to 6: class 1. Reported pIC50 below: class 0.

1) COCCOCCOCCNC(=O)c1cc(Nc2cc(Oc3ccc(NC(=O)Nc4cc(C(C)(C)C)cc(CNC(=O)CN(C)C)c4OC)c4ccccc34)ccn2)cc(OC)c1	class 0
2) C#Cc1cc(Nc2nccc(Oc3ccc(NC(=O)Nc4cc(C(C)(C)C)nn4C(C)C)c4ccccc34)n2)cc(C(=O)NCCOCCOCCOC)c1	class 0
3) COc1cc(Nc2ncc3cc(-c4cc(C(=O)Nc5cc(C(C)(C)C)cc(NS(C)(=O)=O)c5OC)ccc4C)ccc3n2)cc(C(=O)NCCN2CCOCC2)c1	class 0
4) CC1CN(c2ccncc2NC(=O)c2ccnn3ccnc23)CCO1 (stereo not shown)	class 1
5) O=C(Nc1cnccc1N1CCC(F)(F)CC1)c1ccnn2cc(C3CC3)nc12	class 1
6) COCCOCCOCCOCCNC(=O)c1cc(Nc2cc(Oc3ccc(NC(=O)Nc4cc(C(C)(C)C)cc(NS(C)(=O)=O)c4OC)c4ccccc34)ccn2)cc(OC)c1	class 0
7) COCCOCCOCCOc1cc(Nc2cc(Oc3ccc(NC(=O)Nc4cc(C(C)(C)C)cc(P(C)(C)=O)c4OC)c4ccccc34)ncn2)cc(OC)c1	class 0
8) COc1cc(Nc2cc(Oc3ccc(NC(=O)Nc4cc(C(C)(C)C)cc([S+](C)[O-])c4OC)c4ccccc34)ccn2)ccc1C(=O)NCCN1CCOCC1 (stereo not shown)	class 0
9) C#Cc1cc(Nc2cc(Oc3ccc(NC(=O)Nc4cc(C(C)(C)C)cc(P(C)(C)=O)c4OC)c4ccccc34)ccn2)cc(C(=O)NCCOCCOCCOC)c1	class 0
10) COCCOCCOCCNC(=O)c1cc(Nc2cc(Oc3ccc(NC(=O)Nc4cc(C(C)(C)C)cc(CC(N)=O)c4OC)c4ccccc34)ccn2)cc(OC)c1	class 0
